test system: NCI-H441; assay: relative viability (nuclei count vs DMSO), 5 days (fraction); higher = more cells survive; conditions: first compound 0.005 µM

compound	relative viability
CC1(C)CCC(c2ccc(Cl)cc2)=C(CN2CCN(c3ccc(C(=O)NS(=O)(=O)c4ccc(N[C@H](CCN5CCOCC5)CSc5ccccc5)c(S(=O)(=O)C(F)(F)F)c4)cc3)CC2)C1 [Navitoclax] + CC(=O)Nc1cccc(-n2c(=O)n(C3CC3)c(=O)c3c(Nc4ccc(I)cc4F)n(C)c(=O)c(C)c32)c1 [Trametinib] (partner 0.02 µM)	0.534
CC1(C)CCC(c2ccc(Cl)cc2)=C(CN2CCN(c3ccc(C(=O)NS(=O)(=O)c4ccc(N[C@H](CCN5CCOCC5)CSc5ccccc5)c(S(=O)(=O)C(F)(F)F)c4)cc3)CC2)C1 [Navitoclax] + CCNC(=O)c1noc(-c2cc(C(C)C)c(O)cc2O)c1-c1ccc(CN2CCOCC2)cc1 [Luminespib] (partner 0.01 µM)	0.294
CC1(C)CCC(c2ccc(Cl)cc2)=C(CN2CCN(c3ccc(C(=O)NS(=O)(=O)c4ccc(N[C@H](CCN5CCOCC5)CSc5ccccc5)c(S(=O)(=O)C(F)(F)F)c4)cc3)CC2)C1 [Navitoclax] + Cc1cc(Nc2cc(N3CCN(C)CC3)nc(Sc3ccc(NC(=O)C4CC4)cc3)n2)n[nH]1 [Tozasertib] (partner 0.1 µM)	0.648
CC1(C)CCC(c2ccc(Cl)cc2)=C(CN2CCN(c3ccc(C(=O)NS(=O)(=O)c4ccc(N[C@H](CCN5CCOCC5)CSc5ccccc5)c(S(=O)(=O)C(F)(F)F)c4)cc3)CC2)C1 [Navitoclax] + CS(=O)(=O)N1CCN(Cc2cc3nc(-c4cccc5[nH]ncc45)nc(N4CCOCC4)c3s2)CC1 [Pictilisib] (partner 1 µM)	0.441
